assay: chemical genetic growth profiling, strain panel (AID 1159580);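 also: tested at 20 µM; growth read once vehicle control cultures reached saturation at 30 °C; 1 = growth at the plate median or of vehicle wells; lower values mean less growth of the strain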; conditions: S. cerevisiae deletion strains, growth OD, locus YGR078C, strain PAC10, hits give low values
The campaign covered roughly 5,500 compounds. About 2,000 (36%) were called active. Not shown: some 18% with an inconclusive outcome. The list shows a part of the results.
QUANTITY_KIND: normalized growth
Reply with the value as a number alone.

As a guide, the following entries are already answered.
COMPOUND: CC(=O)/C(C)=N\O
normalized growth: 1
//
COMPOUND: CC1NC(=O)NC1=O (stereo not drawn)
normalized growth: 1.01
//
COMPOUND: Cc1coc2ccccc2c1=O
normalized growth: 1.01
//
COMPOUND: O=C(N/N=C\c1ccccc1Cl)c1cccnc1
normalized growth: 1
//
COMPOUND: C=C1C2CC[C@@]3(C)[C@H](c4ccoc4)OC(=O)C[C@]13O[C@H]1CC(=O)C(C)(C)[C@H](C(O)C(=O)OC)[C@@]21C (stereo partly drawn)
normalized growth: 1.01
//
COMPOUND: C[N+]1(CCCCC[N+]2(C)CCCC2)CCCC1
normalized growth: 1.02
//
COMPOUND: COc1cc(NC(=O)NS(=O)(=O)c2ccc(C)cc2)cc(C(F)(F)F)c1
normalized growth: 0.995

Could you now consider this next compound?
Per the record, "O=c1c2ccccc2oc2ccc(O)cc12" has normalized growth of 0.736

###

assay: chemical genetic growth profiling, strain panel (AID 1159580); settings: S. cerevisiae deletion strains, growth OD, locus YOR001W, strain rrp6, hits give low values
Among all 5,500 compounds or so, about 2,000 (36%) were called active. Another 18% or so got no clear call; they are omitted. The list shows a part of the results.
QUANTITY_KIND: normalized growth
Reply with the value as a number alone.

As a guide, the following entries are already answered.
COMPOUND: COc1cccc2c1cc([N+](=O)[O-])c1c(C(=O)O)cc3c(c12)OCO3
normalized growth: 1.01

COMPOUND: C=C1C(N)CC2CC1C2(C)C (stereo unspecified)
normalized growth: 1.01

COMPOUND: O=C(O)c1nc2cc(Cl)c(Cl)cc2[nH]c1=O
normalized growth: 0.994

Per the record, "NCCc1ccc(O)c(O)c1" has normalized growth of 0.997

Per the record, "COc1ccc(-c2cc(=O)c3ccccc3o2)cc1OC" has normalized growth of 0.864

Per the record, COCCOC(=O)C1=C(C)NC(C)=C(C(=O)OC(C)C)C1c1cccc([N+](=O)[O-])c1 (stereo unspecified) has normalized growth of 1

###

assay: chemical genetic growth profiling, strain panel (AID 1159580); conditions: S. cerevisiae deletion strains, growth OD, locus YOR231W, strain MKK1
The whole screen tested about 5,500 compounds, of which about 2,000 (36%) were called active. Not shown: some 18% with an inconclusive outcome. No stated cut-off is given here; in the data, active means normalized growth mostly below about 0.91 (no sharp cut-off); inconclusive means no clear call, values can overlap the other calls; inactive means mostly above about 0.92. The list shows a part of the results.
The reply should name one outcome from active, inactive

Examples from the recorded data:
COMPOUND: COc1cccc2c1cc([N+](=O)[O-])c1c(C(=O)O)cc3c(c12)OCO3
CLASSIFICATION: inactive
//
COMPOUND: COc1cc(NC(=S)Nc2ccccc2OC(F)(F)F)cc(C(F)(F)F)c1
CLASSIFICATION: inactive
//
COMPOUND: Cc1ccc(C(O)(c2ccccc2)c2ccccc2)c2ccccc12
CLASSIFICATION: inactive
//
COMPOUND: COc1c2c(cc3c1OCO3)CC[N+](C)=C2
CLASSIFICATION: inactive

[ask] Could you kindly confirm the outcome this assay logged for COc1ccc(C2CC(c3ccccc3)=Nc3ccccc3S2)cc1OC (stereo not drawn) ?
[reply] inactive

[ask] Could you kindly confirm the outcome this assay logged for "C[n+]1cc2c3c(ccc2c2ccc4cc5c(cc4c21)OCO5)OCO3" ?
[reply] inactive

[ask] Could you kindly confirm the outcome this assay logged for "C/C(=N/Nc1nc(C(C)(C)C)cs1)c1ccc(Cl)c(Cl)c1" ?
[reply] inactive

[ask] Could you kindly confirm the outcome this assay logged for "Cc1csc2ncnc(N/N=C\c3ccccc3Cl)c12" ?
[reply] inactive

[ask] Could you kindly confirm the outcome this assay logged for "CC1=C2C(=CO[C@H](C)[C@H]2C)C(=O)C(C(=O)O)=C1O" ?
[reply] active

[ask] Could you kindly confirm the outcome this assay logged for "CC(=O)N(O)CCCCCNC(=O)CCC(=O)N(O)CCCCCNC(=O)CCC(=O)N(O)CCCCCN" ?
[reply] inactive

[ask] Could you kindly confirm the outcome this assay logged for "O=c1c(-c2ccc(O)cc2)coc2cc(O)cc(O)c12" ?
[reply] inactive

[ask] Could you kindly confirm the outcome this assay logged for "COc1ccc(C(=O)/C=C/c2ccccc2)cc1" ?
[reply] active

[ask] Could you kindly confirm the outcome this assay logged for "Clc1ccc(-c2csc(Nc3ccccc3)n2)s1" ?
[reply] active

[ask] Could you kindly confirm the outcome this assay logged for "NCC(=O)CCC(=O)O" ?
[reply] inactive

[ask] Could you kindly confirm the outcome this assay logged for "COc1cc2c(cc1OC)-c1cc3ccc(OC)c(OC)c3c[n+]1CC2" ?
[reply] inactive

[ask] Could you kindly confirm the outcome this assay logged for "CC(C)CSc1nnc(CSCc2nc(-c3ccc(Cl)cc3)cs2)n1C" ?
[reply] inactive

[ask] Could you kindly confirm the outcome this assay logged for "COc1cc([C@@H]2c3cc4c(cc3[C@H](O)[C@H]3COC(=O)[C@@H]23)OCO4)cc(OC)c1OC" ?
[reply] inactive

[ask] Could you kindly confirm the outcome this assay logged for "O=C(O)c1nc2cc(Cl)c(Cl)cc2[nH]c1=O" ?
[reply] inactive

[ask] Could you kindly confirm the outcome this assay logged for "O=C1CCc2cc(OCCCCc3nnnn3C3CCCCC3)ccc2N1" ?
[reply] inactive

[ask] Could you kindly confirm the outcome this assay logged for "C/C(=C\C(=O)OCCCCCCCCC(=O)O)C[C@@H]1OC[C@H](C[C@@H]2O[C@H]2[C@@H](C)[C@H](C)O)[C@@H](O)[C@H]1O" ?
[reply] inactive

[ask] Could you kindly confirm the outcome this assay logged for "Nc1nc(N)c2nc(-c3ccccc3)c(N)nc2n1" ?
[reply] inactive

###

experiment: chemical genetic growth profiling, strain panel (AID 1159580);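 also: tested at 20 µM; growth read once vehicle control cultures reached saturation at 30 °C; 1 = growth at the plate median or of vehicle wells; lower values mean less growth of the strain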; settings: S. cerevisiae deletion strains, growth OD, locus YLL026W
Screen size: about 5,500 compounds; about 2,000 (36%) were called active. Another 18% or so got no clear call; they are omitted. No stated cut-off is given here; in the data, active means normalized growth mostly below about 0.91 (no sharp cut-off); inconclusive means no clear call, values can overlap the other calls; inactive means mostly above about 0.92. Some of the results follow.
The reply should name one outcome from active, inactive

MOLECULE: O=c1oc2ccccc2c(O)c1Cc1c(O)c2ccccc2oc1=O
CLASSIFICATION: inactive

[ask] Could you kindly confirm the outcome this assay logged for "O=C(O)/C=C(\CC(=O)O)C(=O)O" ?
[reply] inactive

[ask] Could you kindly confirm the outcome this assay logged for "NCCc1ccc(O)cc1" ?
[reply] inactive

[ask] Could you kindly confirm the outcome this assay logged for CC(=O)O[C@@H]1CC2C(C)(C)CCC(=O)[C@]2(C)C2CC[C@@]3(C)[C@H](c4ccoc4)OC(=O)C4OC43[C@@]21C (stereo partly specified) ?
[reply] inactive

###

assay: chemical genetic growth profiling, strain panel (AID 1159580);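 also: tested at 20 µM; growth read once vehicle control cultures reached saturation at 30 °C; 1 = growth at the plate median or of vehicle wells; lower values mean less growth of the strain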; settings: S. cerevisiae deletion strains, growth OD, locus YER133W, strain GLC7
The campaign covered roughly 5,500 compounds. About 2,000 (36%) were called active. About 18% were inconclusive and are not listed. Rule as the data show it: active = normalized growth mostly below about 0.91 (no sharp cut-off); inconclusive = no clear call, values can overlap the other calls; inactive = mostly above about 0.92. Some of the results follow.
The reply should name one outcome from yes (1) = active, no (0) = inactive

Examples from the recorded data:
COMPOUND: O=C(NCc1cccs1)c1csc(Cc2c(Cl)cccc2Cl)n1
CLASSIFICATION: no (0)
//
COMPOUND: CC(C)(C)c1csc(NNC(=O)c2ccc(Cl)cc2)n1
CLASSIFICATION: no (0)
//
COMPOUND: Cc1cc(C(=O)O/N=C(/N)CSc2ncccc2C(F)(F)F)no1
CLASSIFICATION: no (0)
//
COMPOUND: CCC(C)Cn1c(Sc2ncc([N+](=O)[O-])s2)n[nH]c1=O (stereo not given)
CLASSIFICATION: yes (1)
//
COMPOUND: O=C(NNC(=O)c1csc(-c2cccs2)n1)c1ccc(C(F)(F)F)cc1
CLASSIFICATION: no (0)

[ask] Could you kindly confirm the outcome this assay logged for "N/C(CSc1ncccc1C(F)(F)F)=N/OC(=O)Nc1cccc(Cl)c1" ?
[reply] no (0)

###

experiment: chemical genetic growth profiling, strain panel (AID 1159580);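 also: tested at 20 µM; growth read once vehicle control cultures reached saturation at 30 °C; 1 = growth at the plate median or of vehicle wells; lower values mean less growth of the strain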; details: S. cerevisiae deletion strains, growth OD, locus YKL085W, strain MDH1 (second series)
Among all 5,500 compounds or so, about 2,000 (36%) were called active. Inconclusive results (about 18%) are left out. Rule as the data show it: active = normalized growth mostly below about 0.91 (no sharp cut-off); inconclusive = no clear call, values can overlap the other calls; inactive = mostly above about 0.92. The list shows a part of the results.
The reply should name one outcome from active, inactive

Examples from the recorded data:
COMPOUND: N[C@@H]1CONC1=O
CLASSIFICATION: inactive
//
COMPOUND: CCCCCCCCCCCCCCCC[n+]1ccccc1
CLASSIFICATION: active
//
COMPOUND: Cn1nnnc1SCC1=C(C(=O)O)N2C(=O)C(NC(=O)C(O)c3ccccc3)C2SC1 (stereo not given)
CLASSIFICATION: inactive
//
COMPOUND: COC(=O)C1=C(C)NC(C)=C(C(=O)OCCN(C)Cc2ccccc2)C1c1cccc([N+](=O)[O-])c1 (stereo not given)
CLASSIFICATION: inactive
//
COMPOUND: CC(=O)[C@H]1CCC2C3CC=C4C[C@@H](O)CC[C@]4(C)C3CC[C@@]21C (stereo not given in full)
CLASSIFICATION: inactive
//
COMPOUND: CC[N+]1(C)CCCC(OC(=O)C(O)(c2ccccc2)c2ccccc2)C1 (stereo not given)
CLASSIFICATION: inactive

[ask] Could you kindly confirm the outcome this assay logged for "COC(=O)C1=C(C)NC(C)=C(C(=O)OC)C1c1ccccc1[N+](=O)[O-]" ?
[reply] inactive

[ask] Could you kindly confirm the outcome this assay logged for C=CCCCCCCCCCCCC(O)CC(O)CO (stereo not given) ?
[reply] inactive

[ask] Could you kindly confirm the outcome this assay logged for "CC(=O)Oc1c(-c2ccccc2)oc2c(CC=C(C)C)c3c(c(OC(C)=O)c2c1=O)C=CC(C)(C)O3" ?
[reply] inactive

[ask] Could you kindly confirm the outcome this assay logged for "COc1ccc(C(=O)/C=C/c2ccccc2)cc1" ?
[reply] inactive
